- TESTED TARGET: MMP2 (Homo sapiens)
- Sequence (P08253 110-660): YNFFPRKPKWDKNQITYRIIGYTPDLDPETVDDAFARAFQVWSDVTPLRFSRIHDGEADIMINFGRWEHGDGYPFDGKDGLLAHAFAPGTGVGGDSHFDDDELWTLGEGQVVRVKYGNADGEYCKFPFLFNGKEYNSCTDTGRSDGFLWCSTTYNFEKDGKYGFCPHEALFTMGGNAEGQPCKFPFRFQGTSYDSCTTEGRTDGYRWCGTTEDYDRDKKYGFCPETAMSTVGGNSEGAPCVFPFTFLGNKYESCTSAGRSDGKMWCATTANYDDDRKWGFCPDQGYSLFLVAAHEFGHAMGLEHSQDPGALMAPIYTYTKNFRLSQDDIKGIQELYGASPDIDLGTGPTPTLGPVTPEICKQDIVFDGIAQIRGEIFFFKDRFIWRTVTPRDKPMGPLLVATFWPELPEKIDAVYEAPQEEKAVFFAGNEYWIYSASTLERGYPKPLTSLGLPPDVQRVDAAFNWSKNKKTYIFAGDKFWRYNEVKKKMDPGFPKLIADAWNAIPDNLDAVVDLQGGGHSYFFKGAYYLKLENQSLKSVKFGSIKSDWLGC
- EXPERIMENT DESCRIPTION: MMP-2 colorimetric inhibition assay (Enzo kit BML-AK408)
- Format: biochemical
- MEASUREMENT CONTEXT: thiopeptide substrate, absorbance 415 nm; read-out: MMP 2 IC50 class
So I've got a bunch of compounds here, and I need their IC50 values.

Returns the measured IC50 for the input compound. Input: COCCOC(=O)N1[C@@H]2CC[C@H]1[C@H](C(=O)NO)N(S(=O)(=O)c1ccc(Oc3cnn(CC(C)C)c3)nc1)C2
50 to 1000 nM

Same question, CCn1cc(Oc2ccc(S(=O)(=O)N3C[C@H]4CC[C@@H]([C@@H]3C(=O)NO)N4C(=O)OCCOC)cn2)cn1 this time
< 50 nM

Try COC(=O)N1[C@@H]2CC[C@H]1[C@H](C(=O)NO)N(S(=O)(=O)c1ccc(Oc3ccc(F)cc3)nc1)C2 next.
< 50 nM

What do you have for COCCOC(=O)N1[C@@H]2CC[C@H]1[C@H](C(=O)NO)N(S(=O)(=O)N1CCN(Cc3ccc(Cl)cc3)CC1)C2 ?
50 to 1000 nM

Same thing, different compound: COCCOC(=O)N1[C@@H]2CC[C@H]1[C@H](C(=O)NO)N(S(=O)(=O)c1ccc(Oc3cnn(C)c3)nc1)C2
< 50 nM

Next: CC(=O)N1[C@@H]2CC[C@H]1[C@H](C(=O)NO)N(S(=O)(=O)c1ccc(Oc3ccc(OCC(F)(F)F)cc3)nc1)C2
< 50 nM

Repeat for the following compound: CC(C)Oc1ccc(Oc2ccc(S(=O)(=O)N3C[C@H]4CC[C@@H]([C@@H]3C(=O)NO)N4C(=O)C(C)C)cn2)cc1
< 50 nM

// same read-out, input: O=C(NO)[C@H]1[C@@H]2CC[C@H](CN1S(=O)(=O)c1ccc(Oc3ccc(OC(F)(F)F)cc3)nc1)N2C(=O)N1CCOCC1
< 50 nM

Next up: COCCOC(=O)N1[C@@H]2CC[C@H]1[C@H](C(=O)NO)N(S(=O)(=O)N1CCC(Oc3ccnc(C(F)(F)F)c3)CC1)C2
50 to 1000 nM

Further, for COCCOC(=O)N1[C@@H]2CC[C@H]1[C@H](C(=O)NO)N(S(=O)(=O)c1ccc(Oc3ccc(F)cc3)cn1)C2 ?
< 50 nM

// next record COCCOC(=O)N1[C@@H]2CC[C@H]1[C@H](C(=O)NO)N(S(=O)(=O)c1ccc(Oc3cncc(F)c3)nc1)C2
< 50 nM

Please answer likewise for CCOC(=O)N1[C@@H]2CC[C@H]1[C@H](C(=O)NO)N(S(=O)(=O)c1ccc(Oc3ccc(F)cc3)nc1)C2
< 50 nM

And for COCCOC(=O)N1[C@@H]2CC[C@H]1[C@H](C(=O)NO)N(S(=O)(=O)c1ccc(Oc3ccc(C)nc3)nc1)C2 ?
< 50 nM

Again, but for COCCOC(=O)N1[C@@H]2CC[C@H]1[C@H](C(=O)NO)N(S(=O)(=O)c1ccc(OC3CCCCC3)nc1)C2
< 50 nM

Entry COCCOC(=O)N1[C@@H]2CC[C@H]1[C@H](C(=O)NO)N(S(=O)(=O)N1CCC(Oc3ccc(C(F)(F)F)cc3)CC1)C2 please
< 50 nM

Follow-up item: COCCOC(=O)N1[C@@H]2CC[C@H]1[C@H](C(=O)NO)N(S(=O)(=O)N1CCN(C(=O)c3ccc(Cl)cc3)CC1)C2
1000 to 10000 nM

Please give the result for COCCOC(=O)N1[C@@H]2CC[C@H]1[C@H](C(=O)NO)N(S(=O)(=O)c1ccc(OC3CCN(C(C)C)CC3)nc1)C2 too.
50 to 1000 nM

Request: COCCOC(=O)N1[C@@H]2CC[C@H]1[C@H](C(=O)NO)N(S(=O)(=O)c1ccc(Oc3ccc(OC)c(F)c3)nc1)C2
< 50 nM

Then this compound: COCCOC(=O)N1[C@@H]2CC[C@H]1[C@H](C(=O)NO)N(S(=O)(=O)c1ccc(Oc3cnc(OC)nc3)nc1)C2
< 50 nM

Follow-up entry: COCCOC(=O)N1[C@@H]2CC[C@H]1[C@H](C(=O)NO)N(S(=O)(=O)c1ccc(Oc3ccc(Cl)c(F)c3)nc1)C2
< 50 nM

Same lookup for CCN1CCC(Oc2ccc(S(=O)(=O)N3C[C@H]4CC[C@@H]([C@@H]3C(=O)NO)N4C(=O)OCCOC)cn2)CC1 , please.
> 10000 nM

Same question, COCCOC(=O)N1[C@@H]2CC[C@H]1[C@H](C(=O)NO)N(S(=O)(=O)c1ccc(Oc3ccc(F)cc3F)nc1)C2 this time
< 50 nM

For COCCOC(=O)N1[C@@H]2CC[C@H]1[C@H](C(=O)NO)N(S(=O)(=O)c1ccc(Oc3ccc(F)cn3)cc1)C2 then?
< 50 nM

Moving on to the next compound: COCCOC(=O)N1[C@@H]2CC[C@H]1[C@H](C(=O)NO)N(S(=O)(=O)c1ccc(Oc3ccc(OCF)cc3)nc1)C2
< 50 nM

Try the compound COc1ccc(Oc2ccc(S(=O)(=O)N3C[C@H]4CC[C@@H]([C@@H]3C(=O)NO)N4C(C)=O)cn2)cc1F
< 50 nM

// same read-out, input: COCCOC(=O)N1[C@@H]2CC[C@H]1[C@H](C(=O)NO)N(S(=O)(=O)c1ccc(OC3CCOCC3)nc1)C2
50 to 1000 nM
